test system: Human papillomavirus type 1a protein E7 (residues 44-93); experiment: HPV1a E7 fragment binders on microarrays, primary screen, biochemical, small-molecule microarray, residues 44-93, 635 nm fluorescence (AID 1108); details: small-molecule microarray binding, fluorescence 635 nm; higher = more signal;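 further: E7 fragment applied at 1 µg/mL in TBST for 1 h at 4 C; score combines spot fluorescence with its signal to noise ratio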

[
  {
    "compound": "CCOC(=O)[C@H](CC(C)C)NC(=O)CCC1CC(OC(=O)NCCc2ccc(F)cc2)CC2(CCCC(COC(=O)NCCc3ccccc3OC)O2)O1 (some centres undefined)",
    "composite z-score": 1.29
  },
  {
    "compound": "CC(CCN1CCCCc2nc(C)c(C)cc21)=NOC[C@@H](C)[C@H](OCc1ccccc1)C(C)C",
    "composite z-score": -0.824
  },
  {
    "compound": "CCC1=NOC(CCC2CC(OC(=O)NCc3cccc4c3OCO4)CC3(CCCC(COC(=O)NCCc4ccccc4OC)O3)O2)C1 (centres undefined)",
    "composite z-score": 1.21
  },
  {
    "compound": "CCc1cc2c(nc1CC)CCN(CCC(C)=NO[C@@H](C)c1cn([C@H](CO)Cc3ccccc3)nn1)C2",
    "composite z-score": -0.296
  }
]

---

assay: modulators of HCV replicon luciferase signal, primary screen, HCV replication inhibitor project, Huh7 cells, luciferase reporter (AID 1109); details: 48 h, higher = more signal;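 further: huh7 hepatoma cells harbouring a luciferase neomycin HCV replicon reporter; luciferase luminescence as measure of HCV replicon replication; test concentration not given here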
z-score: recorded values

[
  {
    "compound": "COC(=O)CC=C[C@@H](C)[C@@H](C=NOCC[C@@H]1C=C[C@H](OC(C)=O)[C@@H](COC(C)=O)O1)OC",
    "z-score": -0.488
  },
  {
    "compound": "CCOC(=O)[C@H](CC(C)C)NC(=O)CCC1CC(OC(=O)NCc2cccc3ccccc23)CC2(CCCC(COC(=O)NCc3cccc(C(F)(F)F)c3)O2)O1 (some centres undefined)",
    "z-score": 1.32
  },
  {
    "compound": "COC(=O)CC=C[C@@H](C)[C@@H](C=NO[C@@H](C)c1cc(-c2c(C)cc(C)cc2C)no1)NS(=O)(=O)c1ccc(C)cc1",
    "z-score": -1.6
  },
  {
    "compound": "O=C1[C@H]2[C@H]3[C@H](O)[C@H](O)CC(=NO[C@@H]4O[C@H](CO)[C@@H](O)[C@H](O)[C@H]4O)[C@H]3CC[C@H]2C(=O)N1c1cccc(Oc2ccccc2)c1",
    "z-score": -0.243
  }
]

---

test: P. aeruginosa biofilm formation inhibitors, primary screen, PAO1 strain, BacTiter-Glo luminescence, LB-PBS (AID 1144); conditions: 12 h, higher = more signal
quantity kind: z-score

[
  {
    "compound": "COC(=O)CC=C[C@@H](C)[C@@H](C=NOC[C@H]1O[C@H](c2ccccc2)C=C[C@@H]1Oc1ccc(OC)cc1)OC",
    "quantitative readout": 0.257
  },
  {
    "compound": "CC(C)CON=C1C[C@@H](O)[C@@H](O)[C@@H]2[C@@H]3C(=O)N(C4CCCCC4)C(=O)[C@@H]3CC[C@@H]12",
    "quantitative readout": -0.342
  },
  {
    "compound": "COC(=O)[C@@H]1CC[C@H](C)[C@@H](c2ccc(C)cc2)N1C(=O)c1ccc(C=NO[C@@H]2O[C@H](COC(C)=O)[C@@H](OC(C)=O)[C@H](OC(C)=O)[C@H]2OC(C)=O)cc1",
    "quantitative readout": -0.553
  },
  {
    "compound": "CO[C@H]1COC(=O)CC=C[C@@H](C)[C@H](OC)COC(=O)CCC[C@@H]1C",
    "quantitative readout": -0.913
  },
  {
    "compound": "COc1ccc(O[C@H]2C=C[C@@H](c3ccccc3)O[C@@H]2COC(=O)CCC(C)=NO[C@@H]2O[C@H](COC(C)=O)[C@@H](OC(C)=O)[C@H](OC(C)=O)[C@H]2OC(C)=O)cc1",
    "quantitative readout": -0.333
  },
  {
    "compound": "CCOC(=O)[C@H](CC(C)C)NC(=O)CCC1CC(OC(=O)NCc2ccc3c(c2)OCO3)CC2(CCCC(COC(=O)NCCCN3CCCC3=O)O2)O1 (stereo not given in full)",
    "quantitative readout": -0.767
  },
  {
    "compound": "COc1cccc([C@@H]2Oc3ccc(OC)cc3C(=O)[C@H]2O)c1",
    "quantitative readout": -1.15
  },
  {
    "compound": "C[n+]1ccc(-c2ccc(CO)cc2)cc1",
    "quantitative readout": 0.466
  },
  {
    "compound": "Cc1cc2c(c(=O)o1)[C@@H](O)[C@H]1O[C@H]1C2=O",
    "quantitative readout": 0.0297
  },
  {
    "compound": "CO[C@@H]1COC(=O)[C@H](CCSC)NC(=O)CC=C[C@@H](C)COC(=O)[C@H](C)NC(=O)CC=C[C@H]1C",
    "quantitative readout": 0.0303
  },
  {
    "compound": "CO[C@H]1COC(=O)[C@@H]2CCCN2C(=O)CC=C[C@@H](C)[C@H](OC)COC(=O)[C@@H](OCc2ccccc2)C=C[C@@H]1C",
    "quantitative readout": -0.576
  },
  {
    "compound": "CCOC(=O)CCN1C(=O)[C@H]2[C@H]3[C@H](O)[C@H](O)CC(=NOCc4ccccc4)[C@H]3CC[C@H]2C1=O",
    "quantitative readout": 1.14
  },
  {
    "compound": "CO[C@H]1COC(=O)CC=C[C@@H](C)[C@H](NS(=O)(=O)c2ccc(C)cc2)COC(=O)CCC[C@@H]1C",
    "quantitative readout": -0.365
  },
  {
    "compound": "COC(=O)[C@H](C)NC(=O)CCC1CC(OC(=O)NCc2ccc3c(c2)OCO3)CC2(CCCC(COC(=O)NCCc3ccccc3OC)O2)O1 (stereo not given in full)",
    "quantitative readout": 0.301
  },
  {
    "compound": "CCOC(=O)[C@H](Cc1ccccc1)NC(=O)CCC1CC(OC(=O)NCCc2ccc(F)cc2)CC2(CCCC(COC(=O)NCCCN3CCCC3=O)O2)O1 (stereo not given in full)",
    "quantitative readout": -1.68
  }
]

---

test: small-molecule microarray binders of probe aXIP, primary screen, biochemical, NeuroSMM set, 635/667 nm fluorescence (AID 1119); conditions: higher = more signal, called active from +8 up or from −8 down;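 further: probe is the protein aXip251-270 applied at 1 µg/mL to compound-printed slides; binding of probe to printed compounds measured as 667 nm fluorescence plus signal to noise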

[
  {
    "molecule": "COC(=O)[C@@H]1CC[C@H](C)[C@@H](c2ccc(C)cc2)N1C(=O)c1ccc(C=NOCC[C@@H]2C=C[C@H](OC(C)=O)[C@@H](COC(C)=O)O2)cc1",
    "composite Z-score": -0.2
  },
  {
    "molecule": "Cc1ccc(S(=O)(=O)OC[C@H]2CN3[C@H](c4ccc(Br)cc4)[C@@H](C)CC[C@H]3C(=O)O2)cc1",
    "composite Z-score": -0.446
  },
  {
    "molecule": "C[n+]1ccc(-c2ccc(CO)cc2)cc1",
    "composite Z-score": 2.7
  },
  {
    "molecule": "COc1ccc(O[C@H]2C=C[C@@H](c3ccccc3)O[C@@H]2CON=C(C)CCC(=O)OC[C@H]2O[C@H](c3ccccc3)C=C[C@@H]2Oc2ccc(OC)cc2)cc1",
    "composite Z-score": 0.456
  },
  {
    "molecule": "CC(C)=CCCC(C)=CCON=C1C[C@@H](O)[C@@H](O)[C@@H]2[C@@H]3C(=O)N(c4ccc(F)cc4F)C(=O)[C@@H]3CC[C@H]12",
    "composite Z-score": -0.356
  },
  {
    "molecule": "O=C1[C@H]2[C@H]3[C@H](O)[C@H](O)CC(=NO[C@@H]4O[C@H](CO)[C@@H](O)[C@H](O)[C@H]4O)[C@H]3CC[C@H]2C(=O)N1c1cccc(Oc2ccccc2)c1",
    "composite Z-score": 0.189
  },
  {
    "molecule": "CO[C@H]1COC(=O)CC=C[C@@H](C)[C@H](OC)COC(=O)[C@@H]2CCCN2C(=O)CC=C[C@@H]1C",
    "composite Z-score": 0.668
  },
  {
    "molecule": "COc1cccc([C@@H]2Oc3ccc(OC)cc3C(=O)[C@H]2O)c1",
    "composite Z-score": 0.0773
  },
  {
    "molecule": "COc1cccc([C@H]2Oc3ccc(OC)cc3C(=NOC(C)CN3CCCCc4nc(C)c(C)cc43)[C@@H]2O)c1 (stereo partly specified)",
    "composite Z-score": -0.352
  },
  {
    "molecule": "COC(=O)[C@@H]1CC[C@H](C)[C@@H](c2ccc(C)cc2)N1C(=O)c1ccc(C=NO[C@H](C)c2cn([C@@H]3COC[C@H]3O)nn2)cc1",
    "composite Z-score": -0.359
  },
  {
    "molecule": "CC(C)CON=C1C[C@@H](O)[C@@H](O)[C@@H]2[C@@H]3C(=O)N(c4cccc(Oc5ccccc5)c4)C(=O)[C@@H]3CC[C@@H]12",
    "composite Z-score": 0.0388
  },
  {
    "molecule": "CC(C)[C@@H](OCc1ccccc1)[C@H](C)C=NOC[C@@H](O)COCc1ccco1",
    "composite Z-score": -0.0572
  },
  {
    "molecule": "CCN1C(=O)[C@H]2[C@H]3[C@H](O)[C@H](O)CC(=O)[C@@H]3CC[C@H]2C1=O",
    "composite Z-score": -0.141
  },
  {
    "molecule": "COC(=O)CC=C[C@@H](C)[C@@H](C=NOC[C@@H](O)[C@H]1O[C@@H]2OC(C)(C)O[C@@H]2[C@H]1O)NS(=O)(=O)c1ccc(C)cc1",
    "composite Z-score": -0.72
  },
  {
    "molecule": "COC(=O)CC=C[C@H](C)[C@@H](OCc1cccc(Br)c1)[C@@H](C)[C@H](OC)C1CCCCC1",
    "composite Z-score": 0.143
  },
  {
    "molecule": "O=C1[C@H]2[C@H]3[C@H](O)[C@H](O)CC(=NOCc4ccccc4)[C@@H]3CC[C@H]2C(=O)N1Cc1ccc2c(c1)OCO2",
    "composite Z-score": 0.0289
  }
]
